test: Cytotoxicity against human TZM-bl cells assessed as reduction in cell viability incubated for 3 days by MTS assay; assay type: toxicity, cell-based; settings: time 3 day
observation type: CC50 at 72 h
# output: numeric value plus its unit

State the recorded CC50 at 72 h for this entry: Cc1nc(C(CN)NC(=O)c2ccc(-c3ccc4c(c3)OCO4)[nH]2)sc1CO (stereo unspecified)
146 µM

* * *

test: Cytotoxicity against human MT2 cells assessed as reduction in cell viability incubated for 48 hrs by CCK-8 assay; type: toxicity, cell-based
observation type: CC50 at 48 h

State the recorded CC50 at 48 h for this entry: CC1(C)CC(NC(=O)C(=O)Nc2ccc(Cl)c(F)c2)CC(C)(C)N1C(=O)COc1ccc(CCN2C(=O)/C(=C/c3ccc(-c4ccc(Cl)c(C(=O)O)c4)o3)SC2=S)cc1
29 µM

* * *

test: Cytotoxicity against HOS.T4.R5 cells assessed as reduction in cell viability incubated for 24 hrs by WST-1 assay; format: toxicity, cell-based; settings: human
Starred links: 1 amine or outer side, 2 acyl side, 3 side chain; linkers in the order of their positions; H or OH if unused. Positions of bridges follow the written chain, without caps; N, C: chain ends. Non-standard residues stand in square brackets, D forms with d. Residues, ends and D or L forms follow the SMILES beside them. X1 = O=C([C@@H]1CC(n2cc(-c3ccc(-c4cccs4)cc3)nn2)CN1[*:1])[*:2]
observation type: CC50 at 24 h
# output: numeric value plus its unit

State the recorded CC50 at 24 h for this entry: CC[C@H](C)[C@@H]1NC(=O)[C@H](CC(N)=O)NC(=O)[C@@H](N)CC(=O)NCCCC[C@@H](C(N)=O)NC(=O)[C@H](Cc2c[nH]c3ccccc23)NC(=O)[C@@H]2CC(n3cc(-c4ccc(-c5cccs5)cc4)nn3)CN2C1=O (stereo partly specified) (H-DNI[X1]WK-NH2; lactam 1-6)
100 µM

* * *

assay: Selectivity index, ratio of CC50 for cytotoxicity against human MT2 cells to EC50 for antiviral activity against HIV-1 IIIB infected in human MT2 cells; assay type: toxicity, cell-based; conditions: read-out: Ratio CC50/EC50
observation type: selectivity ratio
# answer = number (no unit)

State the recorded selectivity ratio for this entry: Cc1nc(C(CN)NC(=O)c2ccc(-c3ccc4c(c3)OCO4)[nH]2)sc1CO (configuration not stated)
51
